test: yeast display, Sf9 membrane polyspecificity reagent, FACS + sequencing; frameworks hold sequencing errors
PARAMETER: polyreactivity (PSR sort gate)

Take a look at these entries with their results.
biopolymer_sequence=QVQLVESGGGLVQAGGSLRLSCAASGITFYGNAMGRYRQAPGKEREVVAAISSSGGTTYYADSVKGRFTISRDNAKNTVYLQMNSLKPEDTAVYFCNALHPVVYYGTYFNLRRYDYWGQGTQVTVSS parameter="polyreactivity (PSR sort gate)" result="low polyreactivity"
biopolymer_sequence=QVQLVESGGGLVQAGGSLRLSCAASGRIFGYYAMGWYRQAPGKERELVAAISSSGGSTYYADSVKGRFTISRDNAKNTVYLQMNSLKPEDTAVYYCAAGGPRVNGYGRAYDYWGQGTQVTVSS parameter="polyreactivity (PSR sort gate)" result="high polyreactivity"
biopolymer_sequence=QVQLVESGGGLVQAGSSLRLSCAASGRTFTGNAMGRYRQAPGKERELVADISSDGSTNYADSVKGRFTISRDNAKNTVYLQMNSLKPEDTAVYYCAADPFWTYYIDYDYWGQGTQVTVSS parameter="polyreactivity (PSR sort gate)" result="low polyreactivity"
biopolymer_sequence=QVQLVESGGGLVQAGGSLRLSCAASGRIFAYYAMGWNRQAPGKERELVAAISRSGVSTYYADSVKGRFTISRDNAKNTVYLQRNSLKPEDTAVYYCAARWRSGFTSGDYWGQGTLVTVSS parameter="polyreactivity (PSR sort gate)" result="low polyreactivity"
biopolymer_sequence=QVQLVESGGGLVQAGGTLRLSCAPSGYTFVYNAMGWYRQAPGKEREFVAAISWSGTSTRYADSVKGRFTISRDNAKNTVYLQMNSLKPEDTAVYYCAARRRSAQSGSYNHWGQGTQVTVST parameter="polyreactivity (PSR sort gate)" result="high polyreactivity"

Go through the items and report each one's polyreactivity (PSR sort gate).
1. QVQLVESGGGLVQAGGSLRLSCAASGSIFESYAMGWYRQAPGKERELVADITYDGGITYYADSVKGRFTISRDNAKNTVYLQMNSLKPEDTADYYCNADSVQYTPPESDYWGQGTQVTVSS
2. QVQLVESGGGLVQAGGSLRLSCAASGSIFGYYAMGWYRQAPGNERELVAAISFSAGNTYYADSVKGRFTISRDNAKNTVYLQMNSLKPEDSAVYYCAADPKYWTGWIWTSGYDYWGQGTQVTVSS
3. QVQLVESGGGLVQAGGSLRLSCAASGRIFIPYAMGWYIQAPGKERELVAAISSSGGSTYYADSVKGRFTISRDTAKNTVYLQMNSLKPEDTEVYFCAARLYWGYAYENYSSLFEYDYWGQGTQVTVSS
4. QVQLVESGGGLVQAGGSLRLSCAASGIIIGGNAMGWYRQARGKERELVAAINSDDSTYYADSVKGRFTISRDNAKNTVYLQMNSLKPEDTAVYYCAVTETYYSPYSGYWYEYDHWGQGTQVTVSS
5. QVQLVESVGGLVQAGGSLRLSCAASGFILGYNAMGWYRQAPGKERELVADITFSGGGTNYADSVKGRFTISRDNAKNTVYLQMNSLKPEDTAVYDCNAAAFSQLRVRYDYWGQGTQVTVSS

RESULT:
["low polyreactivity", "high polyreactivity", "low polyreactivity", "high polyreactivity", "low polyreactivity"]

QUERY: Determine from records and report polyreactivity (PSR sort gate) for QVQLVESGGGLVQAGGSLRLSCAASGSTFYYGMGWYRQAPGKERELVAAISSRGGTTYYADSVKGRFTISRDNAKNTVYLQMNSLKPEDTAVYYCAAPVPYYVPRRNEGDYWGQGTQVTVSS
RESULT: low polyreactivity
